Can you tell me viability at 18 h, 10 µM for the items I'm about to list?
assay.explanation: Cytotoxicity against mouse P19 derived neurons assessed as cell viability at 10000 nM after 18 hrs by XTT assay relative to control
Assay type: toxicity
condition.description: read-out: Activity
Entry rule: numbers only, all in %.

Which viability at 18 h, 10 µM reading was recorded for the compound N[C@@H](Cc1c[nH]c2ccccc12)Cn1cc(-c2ccc(Cl)c(Cl)c2)nn1 ?
93.8

Dear colleague, I am looking for the recorded viability at 18 h, 10 µM of the following compound: N[C@@H](Cc1c[nH]c2ccccc12)Cn1cc(CNC(=O)/C=C/c2ccc(O)c(O)c2)nn1
140

May I ask what viability at 18 h, 10 µM has been recorded for O=C(/C=C/c1ccc(O)c(O)c1)NCc1cn(C[C@@H]2Cc3c([nH]c4ccccc34)CN2)nn1 ?
140

Item OC[C@@H]1Cc2c([nH]c3ccccc23)CN1Cc1cn(C[C@@H]2Cc3c([nH]c4ccccc34)CN2)nn1 has what recorded viability at 18 h, 10 µM?
124

---

measured.target: Beta-secretase 1 (Homo sapiens, UniProt P56817)
Sequence (P56817 whole entry): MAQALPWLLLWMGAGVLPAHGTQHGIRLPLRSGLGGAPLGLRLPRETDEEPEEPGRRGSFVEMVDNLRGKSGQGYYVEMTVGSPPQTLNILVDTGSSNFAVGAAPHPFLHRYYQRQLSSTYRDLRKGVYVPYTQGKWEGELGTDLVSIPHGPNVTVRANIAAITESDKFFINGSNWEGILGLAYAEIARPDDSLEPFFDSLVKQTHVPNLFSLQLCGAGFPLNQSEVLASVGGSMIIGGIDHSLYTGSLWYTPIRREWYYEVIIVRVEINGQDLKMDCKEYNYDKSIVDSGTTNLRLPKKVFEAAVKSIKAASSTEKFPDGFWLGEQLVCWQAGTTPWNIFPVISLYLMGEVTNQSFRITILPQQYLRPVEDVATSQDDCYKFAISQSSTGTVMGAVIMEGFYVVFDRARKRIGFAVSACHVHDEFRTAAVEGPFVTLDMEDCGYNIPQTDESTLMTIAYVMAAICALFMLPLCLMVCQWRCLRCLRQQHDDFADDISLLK
assay.explanation: Inhibition of BACE1 (unknown origin) at 25 uM using beta-secretase substrate 4 after 30 mins by fluorescence spectrophotometric method relative to control
outcome.measure: inhibition (%)
Write the answer as a number in %, unit excluded.

Form entry - test system: Beta-secretase 1 (Homo sapiens, UniProt P56817); read-out: inhibition; compound: N[C@@H](Cc1c[nH]c2ccccc12)Cn1cc(-c2ccc(Cl)c(Cl)c2)nn1
61.5

Form: Entry = O=C(/C=C/c1ccc(O)c(O)c1)NCc1cn(C[C@@H]2Cc3c([nH]c4ccccc34)CN2)nn1 | System = Beta-secretase 1 (Homo sapiens, UniProt P56817) | inhibition = ____
21.7

# get_value(readout= inhibition, system= Beta-secretase 1 (Homo sapiens, UniProt P56817)) for N[C@@H](Cc1c[nH]c2ccccc12)Cn1cc(CNC(=O)/C=C/c2ccc(O)c(O)c2)nn1
40

Please tell me: inhibition of OC[C@@H]1Cc2c([nH]c3ccccc23)CN1Cc1cn(C[C@@H]2Cc3c([nH]c4ccccc34)CN2)nn1 , system Beta-secretase 1 (Homo sapiens, UniProt P56817)?
67.5

---

assay.explanation: Cytotoxicity against mouse P19 derived neurons assessed as cell viability at 100 nM after 18 hrs by XTT assay relative to control
Format: toxicity
condition.description: read-out: Activity
Please provide measured viability at 18 h, 0.1 µM for the entries that follow.

Could you share which viability at 18 h, 0.1 µM value was measured for N[C@@H](Cc1c[nH]c2ccccc12)Cn1cc(CNC(=O)/C=C/c2ccc(O)c(O)c2)nn1 ?
135%

What value of measured viability at 18 h, 0.1 µM is listed for O=C(/C=C/c1ccc(O)c(O)c1)NCc1cn(C[C@@H]2Cc3c([nH]c4ccccc34)CN2)nn1 ?
125%

What measured viability at 18 h, 0.1 µM goes with N[C@@H](Cc1c[nH]c2ccccc12)Cn1cc(-c2ccc(Cl)c(Cl)c2)nn1 ?
116%

Fill in: viability at 18 h, 0.1 µM of OC[C@@H]1Cc2c([nH]c3ccccc23)CN1Cc1cn(C[C@@H]2Cc3c([nH]c4ccccc34)CN2)nn1 is ___
129%

---

assay.explanation: Cytotoxicity against mouse P19 derived neurons assessed as cell viability at 10 nM after 18 hrs by XTT assay relative to control
Format: toxicity
condition.description: read-out: Activity
outcome.measure: viability at 18 h, 0.01 µM (%)
The figure you give is taken to be in %; do not add the unit.

Recorded viability at 18 h, 0.01 µM for N[C@@H](Cc1c[nH]c2ccccc12)Cn1cc(CNC(=O)/C=C/c2ccc(O)c(O)c2)nn1 , please?
130

Recorded viability at 18 h, 0.01 µM for O=C(/C=C/c1ccc(O)c(O)c1)NCc1cn(C[C@@H]2Cc3c([nH]c4ccccc34)CN2)nn1 , please?
139

viability at 18 h, 0.01 µM lookup needed for N[C@@H](Cc1c[nH]c2ccccc12)Cn1cc(-c2ccc(Cl)c(Cl)c2)nn1 , thanks.
128

Please give the measured viability at 18 h, 0.01 µM for this compound: OC[C@@H]1Cc2c([nH]c3ccccc23)CN1Cc1cn(C[C@@H]2Cc3c([nH]c4ccccc34)CN2)nn1
131

---

Test system: P19
assay.explanation: Neuritogenic activity in mouse P19 derived neurons assessed as increase in neurite number at 1 nM after 18 hrs by phase contrast microscopic method relative to control
Format: functional
I'd be grateful if you could share measured Activity for these entries.
Enter your answer as a number in %; do not include the unit.

Short answer please: Activity, P19, entry O=C(/C=C/c1ccc(O)c(O)c1)NCc1cn(C[C@@H]2Cc3c([nH]c4ccccc34)CN2)nn1
123.04

Find Activity (P19) for the entry N[C@@H](Cc1c[nH]c2ccccc12)Cn1cc(-c2ccc(Cl)c(Cl)c2)nn1
118.7

# value lookup — system P19, readout Activity, item OC[C@@H]1Cc2c([nH]c3ccccc23)CN1Cc1cn(C[C@@H]2Cc3c([nH]c4ccccc34)CN2)nn1
136.09

Lab request: please report Activity under test system P19 for COC1=C2C[C@@H](C)C[C@H](OC)[C@H](O)[C@@H](C)/C=C(\C)[C@H](OC(N)=O)[C@@H](OC)/C=C\C=C(/C)C(=O)NC(=CC1=O)C2=O
55.22

Quick check: Activity on P19, item N[C@@H](Cc1c[nH]c2ccccc12)Cn1cc(CNC(=O)/C=C/c2ccc(O)c(O)c2)nn1 ?
131.74

Notebook: pull reported Activity for P19, entry O=c1c(O)c(-c2ccc(O)c(O)c2)oc2cc(O)cc(O)c12
40.43

---

assay.explanation: Cytotoxicity against mouse P19 derived neurons assessed as cell viability at 1000 nM after 18 hrs by XTT assay relative to control
Assay type: toxicity
condition.description: read-out: Activity
For each entry below, report its viability at 18 h, 1 µM value.
Your answer should be a number followed by the unit of measure.

Consider the molecule shown here: N[C@@H](Cc1c[nH]c2ccccc12)Cn1cc(-c2ccc(Cl)c(Cl)c2)nn1 What is its recorded viability at 18 h, 1 µM?
108%

Which viability at 18 h, 1 µM reading was recorded for the molecule OC[C@@H]1Cc2c([nH]c3ccccc23)CN1Cc1cn(C[C@@H]2Cc3c([nH]c4ccccc34)CN2)nn1 ?
131%

# lookup: viability at 18 h, 1 µM of O=C(/C=C/c1ccc(O)c(O)c1)NCc1cn(C[C@@H]2Cc3c([nH]c4ccccc34)CN2)nn1
120%

Find the recorded viability at 18 h, 1 µM belonging to N[C@@H](Cc1c[nH]c2ccccc12)Cn1cc(CNC(=O)/C=C/c2ccc(O)c(O)c2)nn1 and report it.
129%

---

measured.target: Amyloid-beta precursor protein (Homo sapiens)
Sequence (P05067 whole entry): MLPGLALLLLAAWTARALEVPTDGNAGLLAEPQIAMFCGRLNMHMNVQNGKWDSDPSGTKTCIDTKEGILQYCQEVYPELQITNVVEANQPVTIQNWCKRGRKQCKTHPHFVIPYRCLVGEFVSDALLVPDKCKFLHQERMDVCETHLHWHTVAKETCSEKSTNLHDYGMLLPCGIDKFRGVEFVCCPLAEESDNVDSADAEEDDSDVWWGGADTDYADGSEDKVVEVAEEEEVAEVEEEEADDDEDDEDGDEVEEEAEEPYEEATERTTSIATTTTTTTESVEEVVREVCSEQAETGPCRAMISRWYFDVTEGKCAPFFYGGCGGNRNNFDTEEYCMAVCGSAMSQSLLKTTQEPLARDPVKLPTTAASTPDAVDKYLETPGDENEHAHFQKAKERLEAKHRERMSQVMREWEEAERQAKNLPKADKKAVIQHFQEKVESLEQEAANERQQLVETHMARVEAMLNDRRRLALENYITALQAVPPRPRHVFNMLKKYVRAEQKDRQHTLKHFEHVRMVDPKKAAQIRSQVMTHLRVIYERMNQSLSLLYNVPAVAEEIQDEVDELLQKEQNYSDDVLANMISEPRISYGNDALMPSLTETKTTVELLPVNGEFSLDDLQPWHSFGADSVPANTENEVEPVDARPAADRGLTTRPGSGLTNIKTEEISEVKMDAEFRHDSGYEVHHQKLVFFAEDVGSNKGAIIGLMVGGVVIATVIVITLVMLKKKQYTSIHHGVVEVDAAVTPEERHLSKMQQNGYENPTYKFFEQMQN
assay.explanation: Inhibition of human amyloid beta (1 to 42) aggregation at 100 uM incubated for 48 hrs under dark condition by ThT fluorescence assay relative to control
outcome.measure: inhibition (%)
API: value field is a number in %; no unit string.

Please tell me: inhibition of N[C@@H](Cc1c[nH]c2ccccc12)Cn1cc(-c2ccc(Cl)c(Cl)c2)nn1 , system Amyloid-beta precursor protein (Homo sapiens)?
67.6

API: value(readout= inhibition, system= Amyloid-beta precursor protein (Homo sapiens), query= N[C@@H](Cc1c[nH]c2ccccc12)Cn1cc(CNC(=O)/C=C/c2ccc(O)c(O)c2)nn1 )
81.5

So what inhibition did OC[C@@H]1Cc2c([nH]c3ccccc23)CN1Cc1cn(C[C@@H]2Cc3c([nH]c4ccccc34)CN2)nn1 get with Amyloid-beta precursor protein (Homo sapiens)?
80.2

For Amyloid-beta precursor protein (Homo sapiens), provide inhibition of O=C(/C=C/c1ccc(O)c(O)c1)NCc1cn(C[C@@H]2Cc3c([nH]c4ccccc34)CN2)nn1 please.
84.1
